Reported one-hybrid fitness for binding parS DNA is given for each of the following variants.
B1: Caulobacter ParB omega fusion; a variant is named by its letters at X, in order, B8GW30 (parent)
chain: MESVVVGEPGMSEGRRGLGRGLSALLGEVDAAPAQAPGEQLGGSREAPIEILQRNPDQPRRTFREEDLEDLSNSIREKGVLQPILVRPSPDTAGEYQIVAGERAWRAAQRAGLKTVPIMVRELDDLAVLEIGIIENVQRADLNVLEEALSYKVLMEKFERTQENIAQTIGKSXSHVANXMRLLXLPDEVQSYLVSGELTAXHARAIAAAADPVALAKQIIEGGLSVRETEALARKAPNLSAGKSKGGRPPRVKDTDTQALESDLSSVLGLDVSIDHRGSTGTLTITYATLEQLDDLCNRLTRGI

Variants of: B1
Test: one-hybrid fitness for binding parS DNA (scaled: cognate 1, non-cognate 0); higher = stronger binding
Conditions: with parS DNA site
Over roughly 81,000 sequences, “one-hybrid fitness for binding parS DNA” has its median near -0.17; the highest 2% begin near 0.51. Shown is part of a subset that was picked to be rich in the highest values.

(Q) Returns the measured one-hybrid fitness for binding parS DNA for the input variant. Input: "RWAR"
(A) ≤ 0.2

(Q) Request: "RSHG"
(A) 1

(Q) Request: "RERH"
(A) ≤ 0.2

(Q) Request: "RWAT"
(A) 0.614

(Q) Request: "EAGG"
(A) ≤ 0.2

Data origin: a collection of fitness landscapes (doi:10.1016/j.celrep.2020.107928)
